Attribute: melting point

Some compounds with known melting point results, for comparison:
{"Compound": "CN1CC(=O)N(SC(Cl)(Cl)Cl)C1=O", "melting point": "110 to 112 °C"}
{"Compound": "Oc1ccc(-c2nnc(CSCCCOc3ccccc3)o2)cc1", "melting point": "122 to 127 °C"}

melting point lookup needed for `CCOC(=O)c1cn(Cc2ccccc2)nc1OCc1cccc(OCc2nc(-c3ccccc3)oc2C)c1` , thanks.
95 to 96 °C

* * *

Test Readout: melting point

{"Compound": "O=c1oc(-c2ccc(C#Cc3ccccc3)cc2)cc(O)c1SCCc1ccccc1", "Test Readout": "melting point", "Observed Value": "181 to 182 °C"}
{"Compound": "CCCCOc1ccc(-c2ncc(C#N)c(Cl)n2)cc1", "Test Readout": "melting point", "Observed Value": "170 °C"}
{"Compound": "O=C(c1ccc([N+](=O)[O-])cc1)N1CC2CC2(c2ccc(Cl)cc2)C1 (stereo not given)", "Test Readout": "melting point", "Observed Value": "177 to 180 °C"}

melting point lookup needed for CC(=O)Nc1cc(C2=NOC(c3cc(Cl)cc(Cl)c3)(C(F)(F)F)C2)ccc1-n1cncn1 (stereo not given) , thanks.
230 to 233 °C

Try the compound `CSc1cc2c(cc1C(F)(F)F)N(C(=O)Nc1cccc(C(=O)CCCN(C)C)c1)CC2`
178 to 180 °C
